meta.source: patent US20150104459A1

Target: recombinant soluble homotrimeric HA of A/Indonesia/5/05 (H5N1) (Influenza A virus A/Indonesia/5/2005 (H5N1))
Experiment: HA microarray, BCC supernatant
Conditions: remark: other sources report otherwise
The entries below come with measured Trimeric HA Binding RLU values attached.
parameter: Trimeric HA Binding RLU (RLU)

binder | reported.measurement
TCN-557 (5081_A04) (antibody, V domains shown) VH: QVQLVQSGAEVKKPGASVKVSCKASGHTFTGYYIHWVRQAPGQGLEWMGWINPDSGATSSAQNFQGRVTMTGDTSSSTAYMELSRLSFDDTAVYYCARVLFTSPFDFWGEGTLVTVSS VL: QAVVTQEPSLAVSPGGTVTLTCGSSTGAVTRGHYPYWFQQKPGQAPRALIYDSAGNRHSWTPARFSGSLLGGKAALTLSGAQPEDEAEYYCLLSYSGVWVFGGGTKLTVL | 45200
TCN-535 (5246_P19) (antibody, V domains shown) VH: QVQLVQSGSEVKKPGTSVKVSCTASGSVFTNYGISWVRQAPGQGLEWMGGIIPLFGAAKYAQKFQGRVTITADESTKTVYMELSRLTSKDTAIYFCAKAPRVYEYYFDQWGQGTPVTVSS VL: EIVLTQSPGTLSLSPGERATLSCRASQSVSSSQLAWYQQKPGQAPRLIIYGASTRATGIPDRFSGSGSGTDFTLTIGRLEPEDFAVFFCQQYSTSPPTFGQGTKVDFK | 45600
TCN-537 (3194_D21) (antibody, V domains shown) VH: QVQLQQWGSGLLKPSETLSLTCAVYGGSFRDDYWTWIRQPPGKGLEWIGEINHSGRTNYNPSLKSRVTISVDTSLKQFSLKVISVTAADTAVYYCARGTSHVSRYFDWLPPTNWFDPWGQGTQVTVSS VL: DIVLTQSPGTLSLSPGERATLSCRASQSVSSSYLAWYQQKPGQAPRLVMYGAATRATGIPDRFSGSGSGPDFTLTISRLEPEDFAMYYCQQYGNSPITFGQGTRLEIK | 14900
TCN-546 (5089_L08) (antibody, V domains shown) VH: QVQLQQWGAGLLKPSETLSLTCGVYGGSLSDYYWSWIRQPPGKGLEWIGEINHSGGTNYNPSLKRRVTISVDTSKKQFSLKMNSVTAADTAVYYCARGTDPDTEVYCRAGNCAAFDFWGQGTLVTVSS VL: EIVLTQSPGTLSLSPGERATLSCRASHFVIGRAVAWYQQKPGQAPRLLIYGASSRATGIPDRFSGSGSGTDFTLTISRLETEDFAVFYCQHYGSSPRYAFGQGTKLEIK | 18400
